TEST_TARGET: T1, hPD-1 mIg fusion protein (human; mouse, UniProt Q15116 25-170)
T1 construct: extracellular domain; not shown: CH2-CH3 domain of mouse IgG2a heavy chain (plasmid pmIgG)
T1 sequence (Q15116 25-170): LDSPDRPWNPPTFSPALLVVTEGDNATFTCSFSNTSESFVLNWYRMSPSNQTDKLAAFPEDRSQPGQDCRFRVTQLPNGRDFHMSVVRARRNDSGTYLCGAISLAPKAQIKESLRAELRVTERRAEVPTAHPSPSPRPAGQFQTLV
EXPERIMENTAL_PROTOCOL: SPR Biacore T100, hPD-1mIg immobilised by amine coupling, antibody as analyte
MEASUREMENT_TYPE: kon (M⁻¹ s⁻¹)

Variant 3 (TY101) (antibody, V domains shown, Humanized; VH variant a, VK variant c; Constant regions not spelled out; chimeric parent has human IgG4-S228P and human kappa; also called mutant combination 3) VH: EVQLVESGGGLVQPGGSLRLSCAASGFTFSSYTMSWVRQAPGKGLEWVSYISHGGGDTYYADSVKGRFTISRDNSKNTLYLQMNSLRAEDTAVYYCARHSGYERGYYYVMDYWGQGTLVTVSS VL: DIQLTQSPDSLSVSLGERATINCKASESVDYYGFSFLNWFQQKPGQPPKLLIYAASNRQSGVPDRFSGSGSGTDFTLTISSLQAEDVAVYFCQQSKEVPWTFGQGTKLEIKR ... 242000
Variant 1 (antibody, V domains shown, Humanized; Constant regions not spelled out for the humanized antibodies; the chimeric parent has human IgG4-S228P and human kappa; also called mutant combination 1) VH: EVQLVESGGGLVQPGGSLRLSCAASGFTFSSYTMSWVRQAPGKGLEWVSYISHGGGDTYYADSVKGRFTISRDNSKNTLYLQMNSLRAEDTAVYYCARHSGYERGYYYVMDYWGQGTLVTVSS VL: DIVMTQSPDSLAVSLGERATINCKSSESVDYYGFSFLNWFQQKPGQPPKLLIYAASNRESGVPDRFSGSGSGTDFTLTISSLQAEDVAVYYCQQSKEVPWTFGQGTKLEIKR ... 210000
Variant 9 (antibody, V domains shown, Humanized; VH variant c, VK variant c; Constant regions not spelled out; also called mutant combination 9) VH: EVKLLESGGGLVQPGGSLRLSCAASGFTFSSYTMSWVRQAPGKGLEWVSYISHGGGDTYYPDSVKGRFTISRDNSKNTLYLQMNSLRAEDTAVYYCARHSGYERGYYYVMDYWGKGTTVTVSS VL: DIQLTQSPDSLSVSLGERATINCKASESVDYYGFSFLNWFQQKPGQPPKLLIYAASNRQSGVPDRFSGSGSGTDFTLTISSLQAEDVAVYFCQQSKEVPWTFGQGTKLEIK ... 259000
Variant 7 (antibody, V domains shown, Humanized; VH variant c, VK variant a; Constant regions not spelled out; also called mutant combination 7) VH: EVKLLESGGGLVQPGGSLRLSCAASGFTFSSYTMSWVRQAPGKGLEWVSYISHGGGDTYYPDSVKGRFTISRDNSKNTLYLQMNSLRAEDTAVYYCARHSGYERGYYYVMDYWGKGTTVTVSS VL: DIVMTQSPDSLAVSLGERATINCKSSESVDYYGFSFLNWFQQKPGQPPKLLIYAASNRESGVPDRFSGSGSGTDFTLTISSLQAEDVAVYYCQQSKEVPWTFGQGTKLEIK ... 218000
